Test system: CU-ACC2
assay-procedure: area under concentration-response curve (viability) (AUC (a.u.)); higher = less active
experimental-setup: 48 h
assay-metric: area under concentration-response curve

[[record]]
compound = "Cc1nn(Cc2ccccc2Cl)c(C)c1CN(C)CC(O)COc1ccc(Cl)cc1 (centres undefined)"
number = 507

[[record]]
compound = "CCCc1nc2c(C)cc(-c3nc4ccccc4n3C)cc2n1Cc1ccc(-c2ccccc2C(=O)O)cc1"
number = 639

[[record]]
compound = "COC(=O)N(CC(=O)O)Cc1cccc(OCc2nc(-c3ccc(Cl)cc3)oc2C)c1"
number = 553

[[record]]
compound = "CN(CC1=CC2=C(N\\C(=N/C2=O)C)C=C1)C3=CC=C(S3)C(=O)N[C@@H](CCC(O)=O)C(O)=O"
number = 602


* * *

// area under concentration-response curve lookup, one value per entry
System: NCI-H295R
assay-procedure: area under concentration-response curve (viability) (AUC (a.u.)); higher = less active
experimental-setup: 48 h
assay-metric: area under concentration-response curve

[[record]]
compound = "Cc1nnc(C(C)C)n1C1CC2CCC(C1)N2CC[C@H](NC(=O)C1CCC(F)(F)CC1)c1ccccc1 (some centres not stated)"
number = 559

[[record]]
compound = "Cc1[nH]nc(C(F)(F)F)c1Cc1sc2c(c1C(=O)N1C[C@](C)(O)CO1)c(=O)n(C)c(=O)n2C(C)C"
number = 509

[[record]]
compound = "COc1ccc([S+](=O)([O-])Nc2cc(-c3csc(C#N)c3)ccc2C)cc1"
number = 393

[[record]]
compound = "C/C(=C\\c1csc(C)n1)[C@@H]1C[C@@H]2O[C@]2(C)CCC[C@H](C)[C@H](O)[C@@H](C)C(=O)C(C)(C)[C@@H](O)CC(=O)N1"
number = 460

[[record]]
compound = "Cc1ccc(C(=O)Nc2cccc(C(F)(F)F)c2)cc1-c1ccc2nc(NCCN3CCOCC3)ncc2c1"
number = 546

[[record]]
compound = "OC(=O)C(CC/1=C/C(=O)NC2=CC=CC=C12)NC(=O)C3=CC=C(Cl)C=C3 (configuration not stated)"
number = 483

[[record]]
compound = "CC[C@H](NC1=C2N=C[NH]C2=NC=N1)C/3=N/C4=C(C(=CC=C4)F)C(=O)N3C5=CC=CC=C5"
number = 536

[[record]]
compound = "CN1C(=O)\\C(=C/C(=C1/NC2=C(F)C=C(I)C=C2)C(=O)NOCCO)C"
number = 550

[[record]]
compound = "CC[S+](=O)([O-])Nc1ccc2c(c1)/C(=C(/Nc1ccc(CN3CCCCC3)cc1)c1ccccc1)C(=O)N2"
number = 408

[[record]]
compound = "CC1=C(C)C2=C(S1)[N]3C(=NN=C3[C@H](CC(=O)OC(C)(C)C)/N=C2/C4=CC=C(Cl)C=C4)C"
number = 520

[[record]]
compound = "COc1cccc2c1C(=O)c1c(O)c3c(c(O)c1C2=O)C[C@@](O)(C(C)=O)C[C@@H]3O[C@H]1C[C@H](N)[C@H](O)[C@H](C)O1"
number = 369

[[record]]
compound = "C[C@H]1O[C@H](C[C@H](O)[C@@H]1O)O[C@H]2[C@@H](O)C[C@@H](O[C@@H]2C)O[C@H]3[C@@H](O)C[C@@H](O[C@@H]3C)O[C@H]4CC[C@@]5(C)[C@H](CC[C@@H]6[C@@H]5C[C@@H](O)[C@]7(C)[C@H](CC[C@]67O)C/8=C/C(=O)OC8)C4"
number = 269

[[record]]
compound = "CCC1=C2CN3C(=O)\\C4=C(/C=C3/C2=NC5=CC=C(O)C=C15)[C@@](O)(CC)C(=O)OC4"
number = 524

[[record]]
compound = "CN\\1N(C(=O)\\C(=C1C)C(=O)NC2=CC=C(OC3=CC=NC4=C3C(=C[NH]4)C5=CC=CC=C5)C(=C2)F)C6=CC=C(F)C=C6"
number = 535

[[record]]
compound = "CCCC[C@@H](C=O)NC(=O)[C@H](CC(C)C)NC(=O)OCc1ccccc1"
number = 517

[[record]]
compound = "C[C@H](CCC(=O)O)[C@H]1CC[C@H]2[C@@H]3[C@H](O)C[C@@H]4C[C@H](O)CC[C@]4(C)[C@H]3CC[C@]12C"
number = 485

[[record]]
compound = "CN1C(=O)N[C@@H](Cc2c[nH]c3c(Cl)cccc23)C1=O"
number = 535

[[record]]
compound = "CCCc1cc(C(N)=S)ccn1"
number = 581

[[record]]
compound = "COCCOC1=CN=C2\\C=C/N([C@H](C)C3=NN=C4[N]3C=C(C=C4F)C5=C[N](C)N=C5)C(=O)C2=C1"
number = 322

[[record]]
compound = "C[N]1C=C(C=N1)C2=CC=C3N=CC\\4=C(N(C(=O)\\C=C4)C5=CC6=C(CCN6C(=O)C=C)C=C5)C3=C2"
number = 399

[[record]]
compound = "CC(C)(Oc1ccc(C2CC2(Cl)Cl)cc1)C(=O)O (configuration not stated)"
number = 526

[[record]]
compound = "N\\C1=N\\C2=C(N=C[N]2COCCO)C(=O)N1"
number = 584

[[record]]
compound = "CC1=CC(=CC=C1)OC/2=C/NC(=O)/N=C2"
number = 566

[[record]]
compound = "N#CCC1(n2cc(-c3ncnc4[nH]ccc34)cn2)CN(C2CCN(C(=O)c3ccnc(C(F)(F)F)c3F)CC2)C1"
number = 508

[[record]]
compound = "CCN1C(=O)C\\N=C/2N\\C=C(/N=C12)C3=C(C)N=C(C=C3)C4=NN=C[NH]4"
number = 458

[[record]]
compound = "OC(CCN1CCCCC1)(C2CC\\3CC2\\C=C3)C4=CC=CC=C4 (configuration not stated)"
number = 519

[[record]]
compound = "NC(=O)c1ccc(N(C(N)=O)c2c(F)cccc2F)nc1-c1ccc(F)cc1F"
number = 471

[[record]]
compound = "Cc1noc(C)c1-c1ccc(-c2cc(C(N)=O)c(NC(N)=O)s2)c(O[C@H]2CCNC2)c1"
number = 447

[[record]]
compound = "CCN(CCO)CCCC(C)Nc1ccnc2cc(Cl)ccc12 (configuration not stated)"
number = 368

[[record]]
compound = "CCNC(=O)c1noc(-c2cc(C(C)C)c(O)cc2O)c1-c1ccc(CN2CCOCC2)cc1"
number = 198

[[record]]
compound = "C/C=C(\\C)C(=O)N[C@@H](c1ccccc1)[C@@H](O)C(=O)O[C@H]1C[C@@]2(O)[C@@H](OC(=O)c3ccccc3)[C@@H]3[C@]4(OC(C)=O)CO[C@@H]4C[C@H](O)[C@@]3(C)C(=O)[C@H](OC(C)=O)C(=C1C)C2(C)C"
number = 418

[[record]]
compound = "CO[C@@H](C)Cn1c(=O)n(C)c2cnc3ccc(-c4cncc(C(C)(C)O)c4)cc3c21"
number = 445

